Reference source for all entries: patent EP4342467A1

- ASSAYED TARGET: Ku complex (Homo sapiens, UniProt P12956+P13010)
- Sequence (P12956 whole entry): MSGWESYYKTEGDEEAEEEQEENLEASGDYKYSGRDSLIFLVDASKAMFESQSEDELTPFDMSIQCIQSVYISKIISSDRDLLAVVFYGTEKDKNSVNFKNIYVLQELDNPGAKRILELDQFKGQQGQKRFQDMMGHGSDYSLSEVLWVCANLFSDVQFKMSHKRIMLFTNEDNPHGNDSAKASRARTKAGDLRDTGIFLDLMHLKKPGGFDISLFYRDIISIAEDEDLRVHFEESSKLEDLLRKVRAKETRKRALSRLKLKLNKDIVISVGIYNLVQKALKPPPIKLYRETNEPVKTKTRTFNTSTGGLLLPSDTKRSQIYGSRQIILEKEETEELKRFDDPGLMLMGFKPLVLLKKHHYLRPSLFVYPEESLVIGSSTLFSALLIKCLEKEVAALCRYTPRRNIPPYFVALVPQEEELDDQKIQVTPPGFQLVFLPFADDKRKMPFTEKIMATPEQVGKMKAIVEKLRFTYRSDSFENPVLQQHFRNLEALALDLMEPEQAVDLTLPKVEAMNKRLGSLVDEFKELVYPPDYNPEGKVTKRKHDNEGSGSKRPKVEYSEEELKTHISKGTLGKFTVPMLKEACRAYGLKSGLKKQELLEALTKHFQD
- Sequence (P13010 whole entry): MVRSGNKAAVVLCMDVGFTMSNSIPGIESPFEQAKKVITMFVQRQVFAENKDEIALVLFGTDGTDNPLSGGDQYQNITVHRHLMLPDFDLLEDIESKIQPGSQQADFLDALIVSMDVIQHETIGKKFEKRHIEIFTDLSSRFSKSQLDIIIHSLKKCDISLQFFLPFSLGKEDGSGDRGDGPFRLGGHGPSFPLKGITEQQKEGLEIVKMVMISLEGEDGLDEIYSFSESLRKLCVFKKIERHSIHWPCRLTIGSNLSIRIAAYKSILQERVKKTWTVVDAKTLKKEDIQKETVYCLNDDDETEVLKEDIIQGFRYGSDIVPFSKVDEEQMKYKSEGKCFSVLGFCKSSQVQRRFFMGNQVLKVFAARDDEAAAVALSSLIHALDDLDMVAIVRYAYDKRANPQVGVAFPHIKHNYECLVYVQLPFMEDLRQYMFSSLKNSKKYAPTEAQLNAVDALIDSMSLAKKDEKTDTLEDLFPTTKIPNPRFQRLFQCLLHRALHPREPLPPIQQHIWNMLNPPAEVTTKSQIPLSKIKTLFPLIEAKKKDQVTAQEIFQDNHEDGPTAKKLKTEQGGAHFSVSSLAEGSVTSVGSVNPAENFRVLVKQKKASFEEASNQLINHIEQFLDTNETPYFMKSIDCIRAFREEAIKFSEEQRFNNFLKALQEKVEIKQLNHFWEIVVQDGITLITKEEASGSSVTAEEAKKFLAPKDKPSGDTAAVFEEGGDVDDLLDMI
- TEST DESCRIPTION: microwell protein induced fluorescent enhancement assay (mwPIFE) of Ku-DNA binding
- DETAILS: mwPIFE; estimated from the 0.5 to 8 µM concentration range; read-out: Inhibition of Ku-DNA binding IC50
Entries annotated with measured IC50

CC(=O)NCCc1ccc(-c2csc(NC(=O)c3cncc(Br)c3)n2)cc1 [Compound 5] = > 8 µM
O=C(Nc1nc(-c2cccnc2)cs1)c1cncc(Br)c1 [Compound 7] = > 8 µM
CC(=O)Nc1ccc(-c2csc(NC(=O)c3cncc(Br)c3)n2)cc1 [Compound 6] = > 8 µM
Cc1ccc(C(=O)Nc2nc(-c3ccccc3)cs2)cc1 [Compound 9] = > 8 µM
O=C(Nc1nc(-c2ccccn2)cs1)c1cncc(Br)c1 [Compound 1] = 3 µM

Query block: // returns reported IC50 for input O=C(Nc1nc(-c2ccccc2)cs1)c1cncc(Br)c1 [Compound 8]
Result block: > 8 µM

Query block: // returns reported IC50 for input O=C(Nc1nc(-c2ccccn2)cs1)c1ccc(NC2CC2)nc1 [Compound 4]
Result block: 7 µM
